# Tested On: phosphoY1173-EGFRviii expressed in U87MG tumor cells (Homo sapiens, UniProt P00533, DELINS30-297G)
# Sequence (P00533 with tags, fused parts or gaps DELINS30-297G): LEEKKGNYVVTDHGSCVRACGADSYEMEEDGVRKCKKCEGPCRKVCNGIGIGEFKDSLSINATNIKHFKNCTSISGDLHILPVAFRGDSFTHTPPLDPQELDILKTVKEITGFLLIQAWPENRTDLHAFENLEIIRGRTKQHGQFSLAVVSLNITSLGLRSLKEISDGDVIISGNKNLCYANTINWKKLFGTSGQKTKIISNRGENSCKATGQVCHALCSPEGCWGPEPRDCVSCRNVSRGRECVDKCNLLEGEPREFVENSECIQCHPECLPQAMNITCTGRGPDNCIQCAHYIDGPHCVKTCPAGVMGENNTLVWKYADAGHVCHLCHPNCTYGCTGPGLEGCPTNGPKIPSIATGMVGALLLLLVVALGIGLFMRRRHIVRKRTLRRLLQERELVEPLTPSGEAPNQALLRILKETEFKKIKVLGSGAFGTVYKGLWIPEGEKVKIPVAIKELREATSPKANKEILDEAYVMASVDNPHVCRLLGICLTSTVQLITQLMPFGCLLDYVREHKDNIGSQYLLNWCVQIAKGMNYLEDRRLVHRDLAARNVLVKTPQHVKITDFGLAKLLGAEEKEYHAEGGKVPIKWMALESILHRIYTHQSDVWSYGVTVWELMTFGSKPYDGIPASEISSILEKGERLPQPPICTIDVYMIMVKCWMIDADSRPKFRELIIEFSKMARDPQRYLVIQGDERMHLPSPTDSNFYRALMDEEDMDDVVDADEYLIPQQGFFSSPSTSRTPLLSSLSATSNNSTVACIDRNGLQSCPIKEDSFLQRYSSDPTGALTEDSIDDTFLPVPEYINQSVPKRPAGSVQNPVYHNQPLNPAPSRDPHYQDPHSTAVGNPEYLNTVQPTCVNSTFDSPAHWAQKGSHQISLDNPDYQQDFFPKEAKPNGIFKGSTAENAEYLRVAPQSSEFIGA
# Procedure Text: Inhibition of phosphoY1173-EGFRviii in U87MG tumor cells engineered to express EGFR-viii (in-cell ELISA)
# Test Conditions: in-cell ELISA, FIG. 1, read-out: EC50 against EGFR-viii
pEC50: −log10 of the molar value.
Reported Metric: pEC50

Supply reported pEC50 belonging to this compound: C=CC(=O)Nc1ccc2ncnc(Nc3ccc(OCc4cccc(F)c4)c(Cl)c3)c2c1 > 7.30
